- ASSAY_EXPLANATION: Cytotoxicity, CellTiter Glo
- Assay type: cell-based
- MEASUREMENT_CONDITIONS: human, SKBR3 cells, 5-day proliferation
ENDPOINT_LABEL: IC50 at 5 day (nM)
Could you give me the number in nM? Just the number is fine.

QUERY: Report measured IC50 at 5 day; entry is COc1cc2c(NC3CCN(C(C)C)CC3)nc(C3CCCCC3)nc2cc1OCCCN1CCCC1 [UNC0638, reference compound]
RESULT: 600

====

- ASSAY_EXPLANATION: Cytotoxicity, CellTiter Glo
- Assay type: cell-based
- MEASUREMENT_CONDITIONS: human, TC-71 cells, 7-day proliferation, neural crest derived lines
ENDPOINT_LABEL: IC50 at 7 day (nM)
Could you give me the number in nM? Just the number is fine.

QUERY: Report measured IC50 at 7 day; entry is COc1cc2c(NC3CCN(C(C)C)CC3)nc(C3CCCCC3)nc2cc1OCCCN1CCCC1 [UNC0638, reference compound]
RESULT: 600

====

- ASSAY_EXPLANATION: Cytotoxicity, CellTiter Glo
- Assay type: cell-based
- MEASUREMENT_CONDITIONS: human, G-401 cells, 7-day proliferation, neural crest derived lines
Each entry below lists one item and its recorded IC50 at 7 day value.

COMPOUND: COc1cc2c(NC3CCN(C(C)C)CC3)nc(C3CCCCC3)nc2cc1OCCCN1CCCC1 [UNC0638, reference compound]
IC50 at 7 day: 400 nM

Shift focus to the following entry.
QUERY: Report measured IC50 at 7 day; entry is COc1cc2c(cc1OCCCN1CCCC1)N=C(N)C21CCC1 [Example 7]
RESULT: > 10000 nM

====

- ASSAY_EXPLANATION: Cytotoxicity, CellTiter Glo
- Assay type: cell-based
- MEASUREMENT_CONDITIONS: human, Calu6 cells, 5-day proliferation
Each entry below lists one item and its recorded IC50 at 5 day value.

COMPOUND: COc1cc2c(cc1OCCCN1CCCC1)N=C(N)C21CCC1
IC50 at 5 day: > 10000 nM

Shift focus to the following entry.
QUERY: Report measured IC50 at 5 day; entry is COc1cc2c(NC3CCN(C(C)C)CC3)nc(C3CCCCC3)nc2cc1OCCCN1CCCC1 [UNC0638, reference compound]
RESULT: 500 nM

====

- ASSAY_EXPLANATION: in vitro
- Format: cell-based
- MEASUREMENT_CONDITIONS: PH-1; 7-day proliferation, neural crest derived lines; read-out: IC50 cytotoxicity
ENDPOINT_LABEL: IC50 at 7 day (µM)
Could you give me the number in µM? Just the number is fine.

QUERY: Report measured IC50 at 7 day; entry is COc1cc2c(NC3CCN(C(C)C)CC3)nc(C3CCCCC3)nc2cc1OCCCN1CCCC1 [UNC0638, reference compound]
RESULT: 4.4

====

Each entry below lists one item and its recorded IC50 at 5 day value.
- ASSAY_EXPLANATION: Cytotoxicity, CellTiter Glo
- Assay type: cell-based
- MEASUREMENT_CONDITIONS: human, Kasume-1 cells, 5-day proliferation

COMPOUND: COc1cc2c(cc1OCCCN1CCCC1)N=C(N)C21CCC1 [Example 7]
RESULT: > 10000 nM

Shift focus to the following entry.
QUERY: Report measured IC50 at 5 day; entry is COc1cc2c(NC3CCN(C(C)C)CC3)nc(C3CCCCC3)nc2cc1OCCCN1CCCC1 [UNC0638, reference compound]
RESULT: 1100 nM

====

- ASSAY_EXPLANATION: Cytotoxicity, CellTiter Glo
- Assay type: cell-based
- MEASUREMENT_CONDITIONS: human, 22RV1 cells, 5-day proliferation
ENDPOINT_LABEL: IC50 at 5 day (nM)
Could you give me the number in nM? Just the number is fine.

QUERY: Report measured IC50 at 5 day; entry is COc1cc2c(NC3CCN(C(C)C)CC3)nc(C3CCCCC3)nc2cc1OCCCN1CCCC1 [UNC0638, reference compound]
RESULT: 200

====

- ASSAY_EXPLANATION: Cytotoxicity, CellTiter Glo
- Format: cell-based
- MEASUREMENT_CONDITIONS: human, DU145 cells, 5-day proliferation
ENDPOINT_LABEL: IC50 at 5 day

COMPOUND: COc1cc2c(NC3CCN(C(C)C)CC3)nc(C3CCCCC3)nc2cc1OCCCN1CCCC1 [UNC0638, reference compound]
IC50 at 5 day: 700 nM

QUERY: Report measured IC50 at 5 day; entry is COc1cc2c(cc1OCCCN1CCCC1)N=C(N)C21CCC1
RESULT: > 10000 nM

====

- TARGET_ENTITY: UniProt Q96KQ7
- Sequence (Q96KQ7 1-1210): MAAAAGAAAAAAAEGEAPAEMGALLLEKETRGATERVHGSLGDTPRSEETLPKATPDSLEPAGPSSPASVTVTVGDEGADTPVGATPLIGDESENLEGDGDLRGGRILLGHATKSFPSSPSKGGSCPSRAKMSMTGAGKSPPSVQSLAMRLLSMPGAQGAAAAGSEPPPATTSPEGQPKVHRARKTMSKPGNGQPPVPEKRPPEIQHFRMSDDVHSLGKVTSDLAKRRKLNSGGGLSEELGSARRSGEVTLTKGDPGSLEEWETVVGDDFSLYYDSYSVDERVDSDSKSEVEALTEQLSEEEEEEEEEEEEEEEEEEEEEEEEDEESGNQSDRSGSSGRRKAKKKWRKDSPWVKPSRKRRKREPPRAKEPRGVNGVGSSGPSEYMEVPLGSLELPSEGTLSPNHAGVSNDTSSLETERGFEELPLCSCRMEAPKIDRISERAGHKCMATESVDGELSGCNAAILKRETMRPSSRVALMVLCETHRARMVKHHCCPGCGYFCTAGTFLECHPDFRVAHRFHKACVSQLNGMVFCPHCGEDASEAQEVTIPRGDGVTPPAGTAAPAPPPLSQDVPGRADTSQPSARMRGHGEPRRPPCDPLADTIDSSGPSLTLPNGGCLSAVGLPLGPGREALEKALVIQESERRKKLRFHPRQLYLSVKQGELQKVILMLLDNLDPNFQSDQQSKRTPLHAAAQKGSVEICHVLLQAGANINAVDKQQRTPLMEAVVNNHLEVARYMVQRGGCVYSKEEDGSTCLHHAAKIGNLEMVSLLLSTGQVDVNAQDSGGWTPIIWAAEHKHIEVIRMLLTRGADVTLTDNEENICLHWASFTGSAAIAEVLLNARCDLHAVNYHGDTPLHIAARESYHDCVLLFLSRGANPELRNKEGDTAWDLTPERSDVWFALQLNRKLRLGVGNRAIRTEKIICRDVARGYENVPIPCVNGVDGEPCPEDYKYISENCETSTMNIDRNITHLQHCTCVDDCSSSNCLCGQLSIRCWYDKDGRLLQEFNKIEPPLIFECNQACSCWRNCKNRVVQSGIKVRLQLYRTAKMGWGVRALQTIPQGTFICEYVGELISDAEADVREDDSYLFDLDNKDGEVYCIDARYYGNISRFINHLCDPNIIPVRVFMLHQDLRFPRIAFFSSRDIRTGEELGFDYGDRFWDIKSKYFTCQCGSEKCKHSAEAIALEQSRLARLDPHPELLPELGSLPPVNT
ENDPOINT_LABEL: pIC50
To interpret pIC50, take it as minus log10 of a concentration measured in moles per litre.

MOLECULE: COc1cc2c(cc1OCC1CCN(C)C1)N=C(N)C21CCC1 (stereo not shown)
NUMERIC_RESULT: 9.00

QUERY: Report measured pIC50; entry is COc1cc2c(cc1OCC1CCCN1C)N=C(N)C21CCC1 (stereo not shown)
RESULT: 8.30

QUERY: Report measured pIC50; entry is COc1cc2c(cc1OC)C1(CCCCC1)C(N)=N2
RESULT: 5.45

QUERY: Report measured pIC50; entry is COc1ccc2c(c1)C1(CCC1)C(N)=N2
RESULT: 4.74

====

- ASSAY_EXPLANATION: Cytotoxicity, CellTiter Glo
- Type: cell-based
- MEASUREMENT_CONDITIONS: human, LN229 cells, 5-day proliferation
ENDPOINT_LABEL: IC50 at 5 day (nM)
Could you give me the number in nM? Just the number is fine.

QUERY: Report measured IC50 at 5 day; entry is COc1cc2c(NC3CCN(C(C)C)CC3)nc(C3CCCCC3)nc2cc1OCCCN1CCCC1 [UNC0638, reference compound]
RESULT: 500

====

- ASSAY_EXPLANATION: Cytotoxicity, CellTiter Glo
- Type: cell-based
- MEASUREMENT_CONDITIONS: human, KMS11 cells, 5-day proliferation
ENDPOINT_LABEL: IC50 at 5 day (µM)
Could you give me the number in µM? Just the number is fine.

QUERY: Report measured IC50 at 5 day; entry is COc1cc2c(NC3CCN(C(C)C)CC3)nc(C3CCCCC3)nc2cc1OCCCN1CCCC1 [UNC0638, reference compound]
RESULT: 4
